Experiment: Pharmacokinetic study in humans, sodium salt in enteric capsules, single and multiple dose (Example 2)
Type: in vivo, human
Conditions: human, plasma, oral, 200 mg, mean, dose group 200, capsule, Day 1; read-out: Tmax
MEASUREMENT TYPE: Tmax
Number first, unit second: that is the form wanted.

QUERY: Tmax for O=C(Nc1nc(=O)n(Cc2ccc(Cl)cc2)s1)c1ccc(Cl)cc1 ?
RESULT: 15 h

----------
Test: Pharmacokinetic study in humans, sodium salt tablets, multiple dose (Example 3)
Format: in vivo, human
Details: human, plasma, oral, 400 mg, 400 mg dose group (424.24 mg sodium salt tablet once daily), 24 h after dose of Day 1; read-out: Clast at 24 hours, Median
MEASUREMENT TYPE: concentration at 24 h (ng/mL)
Give bare numbers, in ng/mL.

QUERY: What does the record list as concentration at 24 h for O=C(Nc1nc(=O)n(Cc2ccc(Cl)cc2)s1)c1ccc(Cl)cc1 ?
RESULT: 21500

----------
Test: Pharmacokinetic study in humans, sodium salt in enteric capsules, single and multiple dose (Example 2)
Type: in vivo, human
Conditions: human, plasma, oral, 400 mg, mean, dose group 400, capsule, Day 1; read-out: Tmax
MEASUREMENT TYPE: Tmax (h)
Numbers only, in h.

QUERY: // returns reported Tmax for input O=C(Nc1nc(=O)n(Cc2ccc(Cl)cc2)s1)c1ccc(Cl)cc1
RESULT: 15.4

----------
Assay: Pharmacokinetic study in humans, sodium salt in enteric capsules, single and multiple dose (Example 2)
Format: in vivo, human
Settings: human, plasma, oral, 2000 mg, 2000 mg Dose Group, capsule once daily, Day 18, Median; read-out: Cmax
MEASUREMENT TYPE: Cmax (ng/mL)
Give bare numbers, in ng/mL.

QUERY: Given the compound O=C(Nc1nc(=O)n(Cc2ccc(Cl)cc2)s1)c1ccc(Cl)cc1 , what is its reported Cmax?
RESULT: 48000

----------
Assay: Pharmacokinetic study in humans, sodium salt in enteric capsules, single and multiple dose (Example 2)
Assay type: in vivo, human
Details: human, plasma, oral, 800 mg, 800 mg Dose Group, capsules once daily, Day 18, Median; read-out: Clast
MEASUREMENT TYPE: concentration at 24 h
Provide a numeric answer, followed by its unit.

QUERY: Look at this compound and give its reported concentration at 24 h. O=C(Nc1nc(=O)n(Cc2ccc(Cl)cc2)s1)c1ccc(Cl)cc1 [Compound of formula II]
RESULT: 115 µg/mL

----------
Assay: Pharmacokinetic study in humans, sodium salt in enteric capsules, single and multiple dose (Example 2)
Type: in vivo, human
Conditions: human, plasma, oral, 400 mg, 400 mg Dose Group, capsules once daily, Day 18, Mean
MEASUREMENT TYPE: AUC(0-t) (µg·h/mL)
One number for each entry, in µg·h/mL.

QUERY: May I ask what AUC(0-t) has been recorded for O=C(Nc1nc(=O)n(Cc2ccc(Cl)cc2)s1)c1ccc(Cl)cc1 ?
RESULT: 1540

----------
Assay: Pharmacokinetic study in humans, sodium salt in enteric capsules, single and multiple dose (Example 2)
Assay type: in vivo, human
Conditions: human, plasma, oral, 2000 mg, 2000 mg Dose Group, capsule once daily, Day 18, Geometric Mean; read-out: Cmax
MEASUREMENT TYPE: Cmax (ng/mL)
Answers are plain numbers, in ng/mL.

QUERY: Find the recorded Cmax belonging to O=C(Nc1nc(=O)n(Cc2ccc(Cl)cc2)s1)c1ccc(Cl)cc1 [Compound of formula II] and report it.
RESULT: 48600

----------
Assay: Pharmacokinetic study in humans, sodium salt in enteric capsules, single and multiple dose (Example 2)
Format: in vivo, human
Details: human, plasma, oral, 200 mg, mean, dose group 200, capsule, Day 18; read-out: Cmax
MEASUREMENT TYPE: Cmax (ng/mL)
One number for each entry, in ng/mL.

QUERY: I'd like to know its Cmax. The molecule in question is O=C(Nc1nc(=O)n(Cc2ccc(Cl)cc2)s1)c1ccc(Cl)cc1 [Compound of formula II]
RESULT: 49900

----------
Experiment: Pharmacokinetic study in humans, sodium salt in enteric capsules, single and multiple dose (Example 2)
Format: in vivo, human
Conditions: human, plasma, oral, 400 mg, 400 mg Dose Group, capsules once daily, Day 18, Median
MEASUREMENT TYPE: AUC
Provide the measurement as a number trailed by its unit.

QUERY: May I ask what AUC has been recorded for O=C(Nc1nc(=O)n(Cc2ccc(Cl)cc2)s1)c1ccc(Cl)cc1 [Compound of formula II] ?
RESULT: 1400 µg·h/mL

----------
Test: Pharmacokinetic study in humans, sodium salt in enteric capsules, single and multiple dose (Example 2)
Type: in vivo, human
Conditions: human, plasma, oral, 200 mg, mean, dose group 200, capsule, Day 1; read-out: Cmax
MEASUREMENT TYPE: Cmax (ng/mL)
Give bare numbers, in ng/mL.

QUERY: Fill blank: measured Cmax of the compound O=C(Nc1nc(=O)n(Cc2ccc(Cl)cc2)s1)c1ccc(Cl)cc1 [Compound of formula II] is ____.
RESULT: 7190

----------
Assay: Pharmacokinetic study in humans, sodium salt in enteric capsules, single and multiple dose (Example 2)
Type: in vivo, human
Settings: human, plasma, oral, 2000 mg, 2000 mg Dose Group, capsule once daily, Day 18, Mean; read-out: Cmax
MEASUREMENT TYPE: Cmax (ng/mL)
Give bare numbers, in ng/mL.

QUERY: Requested field: Cmax. Item: O=C(Nc1nc(=O)n(Cc2ccc(Cl)cc2)s1)c1ccc(Cl)cc1 [Compound of formula II]
RESULT: 49900

----------
Experiment: Pharmacokinetic study in humans, sodium salt in enteric capsules, single and multiple dose (Example 2)
Assay type: in vivo, human
Conditions: human, plasma, oral, 400 mg, mean, dose group 400, capsule, Day 18; read-out: Tmax
MEASUREMENT TYPE: Tmax (h)
One number for each entry, in h.

QUERY: Looking for the measured Tmax of O=C(Nc1nc(=O)n(Cc2ccc(Cl)cc2)s1)c1ccc(Cl)cc1 , can you help?
RESULT: 8.31

----------
Test: Pharmacokinetic study in humans, sodium salt tablets, multiple dose (Example 3)
Format: in vivo, human
Conditions: human, plasma, oral, 200 mg, 200 mg dose group (212.12 mg sodium salt tablet once daily), 24 h after dose of Day 1; read-out: Clast at 24 hours, Median
MEASUREMENT TYPE: concentration at 24 h (ng/mL)
Answers are plain numbers, in ng/mL.

QUERY: Which concentration at 24 h is reported for this compound? O=C(Nc1nc(=O)n(Cc2ccc(Cl)cc2)s1)c1ccc(Cl)cc1
RESULT: 11200

----------
Test: Pharmacokinetic study in humans, sodium salt in enteric capsules, single and multiple dose (Example 2)
Type: in vivo, human
Conditions: human, plasma, oral, 800 mg, 800 mg Dose Group, capsules once daily, Day 18, Geometric Mean
MEASUREMENT TYPE: AUC(0-t) (µg·h/mL)
Give bare numbers, in µg·h/mL.

QUERY: What value of AUC(0-t) has been recorded for this entry: O=C(Nc1nc(=O)n(Cc2ccc(Cl)cc2)s1)c1ccc(Cl)cc1
RESULT: 2590

----------
Assay: Pharmacokinetic study in humans, sodium salt in enteric capsules, single and multiple dose (Example 2)
Assay type: in vivo, human
Conditions: human, plasma, oral, 2000 mg, 2000 mg Dose Group, capsule once daily, Day 18, Mean; read-out: Tmax
Protocol: An open, randomised, parallel-group study in healthy volunteers (hereafter referred to as subjects) was conducted to evaluate the exposure of 4-chloro-N-[2-[(4-chlorophenyl)methyl]-3-oxo-1,2,4-thiadiazol-5-yl]benzamide after single and multiple dose administration of 3 dose levels of the sodium salt of 4-chloro-N-[2-[(4-chlorophenyl)methyl]-3-oxo-1,2,4-thiadiazol-5-yl]benzamide and to evaluate combination with dapagliflozin at steady state. […]
MEASUREMENT TYPE: Tmax (h)
Numbers only, in h.

QUERY: If you can, please state the reported Tmax value of O=C(Nc1nc(=O)n(Cc2ccc(Cl)cc2)s1)c1ccc(Cl)cc1 .
RESULT: 8.03

----------
Assay: Pharmacokinetic study in humans, sodium salt in enteric capsules, single and multiple dose (Example 2)
Format: in vivo, human
Conditions: human, plasma, oral, 400 mg, 400 mg Dose Group, capsules once daily, Day 18, Geometric Mean; read-out: Cmax
MEASUREMENT TYPE: Cmax (µg/mL)
Give bare numbers, in µg/mL.

QUERY: Fill in: Cmax of O=C(Nc1nc(=O)n(Cc2ccc(Cl)cc2)s1)c1ccc(Cl)cc1 is ___
RESULT: 69.6

----------
Experiment: Pharmacokinetic study in humans, sodium salt tablets, multiple dose (Example 3)
Assay type: in vivo, human
Details: human, plasma, oral, 400 mg, 400 mg Dose Group, tablet once daily, Day 21, Mean
MEASUREMENT TYPE: AUC(0-t) (µg·h/mL)
Give bare numbers, in µg·h/mL.

QUERY: # query: AUC(0-t) of entry O=C(Nc1nc(=O)n(Cc2ccc(Cl)cc2)s1)c1ccc(Cl)cc1
RESULT: 3110
